protocol: UV spectrum (absorption maximum and molar extinction)
Type: physicochemical
run-conditions: in Dioxan
Class TRUE: UV spectrum: e / mol Ext. at the maximum (1. Maximum where two are given) at least 40000. Class FALSE: UV spectrum: e / mol Ext. at the maximum (1. Maximum where two are given) below 40000.

// inclusive: UV spectrum: e / mol Ext. at the maximum (1. Maximum where two are given) at least 40000? input: CCN(CC)c1ccc(C(=O)c2ccccc2C(=O)OC/C=C/COC(=O)c2ccccc2C(=O)c2ccc(N(CC)CC)cc2O)c(O)c1
TRUE

Kindly determine if UV spectrum: e / mol Ext. at the maximum (1. Maximum where two are given) recorded for CCN(CC)c1ccc(C(=O)c2ccccc2C(=O)Nc2ccc(C(N)=O)cc2)c(O)c1 is above or exactly 40000.
FALSE

Entry CCN(CC)c1ccc(C(=O)c2ccccc2C(=O)Nc2ccc(-c3nc4ccc(C)cc4s3)cc2)c(O)c1 : is its UV spectrum: e / mol Ext. at the maximum (1. Maximum where two are given) no less than 40000?
TRUE

Identify whether the reported UV spectrum: e / mol Ext. at the maximum (1. Maximum where two are given) of the following molecule is 40000 or greater: CCN(CC)c1ccc(C(=O)c2ccccc2C(=O)Nc2ccccc2)c(O)c1
FALSE

Test whether the molecule CCN(CC)c1ccc(C(=O)c2ccccc2C(=O)N(CCO)CCO)c(O)c1 records UV spectrum: e / mol Ext. at the maximum (1. Maximum where two are given) of 40000 or higher.
FALSE

I'd appreciate it if you could say whether CCN(CC)c1ccc(C(=O)c2ccccc2C(=O)N2CCOCC2)c(O)c1 has UV spectrum: e / mol Ext. at the maximum (1. Maximum where two are given) at least equal to 40000.
FALSE

Item CCN(CC)c1ccc(C(=O)c2ccccc2C(=O)OC2CC(C)CCC2C(C)C)c(O)c1 (stereo not shown) with UV spectrum: e / mol Ext. at the maximum (1. Maximum where two are given) of 40000 or above?
FALSE
